RECORDED_METRIC: melting point

These recorded examples may help you get a feel for the data.
COMPOUND	melting point
O=C(O)c1cccc2ncc(-c3ccccc3)cc12	> 290 °C
CCOC(=O)N1CC2CCN(c3c(F)cc4c(=O)c(C(=O)O)cn(C5CC5)c4c3F)C2C1 (stereo not given)	192 to 193 °C
O=c1c2cccnc2n(-c2cccc([N+](=O)[O-])c2)c(=O)n1Cc1ccncc1	207 to 209 °C
CCOC(=O)C[C@@H]1CCC/C1=C\Cc1c(O)c2c(c(C)c1CC)COC2=O	95 to 95.7 °C
CC(=O)Nc1ccc(/C=C\COCCCCCCNCC(O)c2ccc(O)c(CO)c2)cc1 (stereo not given)	103 to 108 °C
N#Cc1cccc(C2=Nc3cc(CO)c(C#Cc4ccccc4)cc3NC(=O)C2)c1	> 255 °C
CC(C)(C)OC(=O)N1CCC(c2nc3cc(-c4ccc(C(N)=O)c(Cl)c4)ccc3o2)CC1	169 to 171 °C
O=[N+]([O-])c1ccc(-c2nn(-c3ccccn3)cc2C=NO)o1	234 to 235 °C
O=C(NCc1ccc(Cl)cc1)c1cnc2c(F)cc(-c3nccs3)cc2c1O	296 to 298 °C
CON(C(=O)c1ccoc1C)C1CCCCC1	46 °C

Would you mind listing melting point for each of the following compounds?
1. CC(C)(C)c1ccc(OS(C)(=O)=O)c(C(C)(C)C)c1
2. N#Cc1cccc(C(F)(F)F)c1O
3. CCOC(=O)Cc1cc(C)c(C(=O)c2ccc(C)cc2)n1C
4. O=C1CN(S(=O)(=O)CC(Cc2ccccc2)C(=O)O)CCN1 (stereo not given)
5. NS(=O)(=O)c1nnc(NC(=O)c2cnn3c(C(F)F)cc(-c4ccc(C(F)(F)F)cc4)nc23)s1
6. CSc1ccc(C(=O)Nc2ccc3ccc(Cl)nc3n2)cc1
7. CCCCNC(=O)Oc1ccc(Oc2ccc(C)cc2)cc1

63 °C
134 °C
90 to 93 °C
168 to 171 °C
284 °C
199 °C
64 to 66 °C

###

RECORDED_METRIC: melting point

For orientation, consider the following solved cases.
COMPOUND	MEAS_VALUE
NC(=O)c1sc2nccc(N3CCN(C(c4ccccc4)c4ccccc4)CC3)c2c1N	225 to 233 °C
COc1cc2nc(N3CCN(C(=O)C4=CCCC4)CC3)nc(N)c2cc1OC	256 to 258 °C
C=CCOc1ccc(C(=O)c2ccc(OCC=C)cc2O)c(O)c1	95 °C

Go through the list and state melting point for each entry.
1. Cc1c(C(=O)O)cnn1-c1nc(-c2ccc3ccccc3c2)cs1
2. CC(C)(C)[Si](C)(C)O[C@@H]1c2cc(Br)ccc2-c2ccc(Br)cc2[C@H]1O[Si](C)(C)C(C)(C)C (relative stereo)

1: 273 to 274 °C; 2: 162 to 163 °C

Look at each compound and report its melting point.
1. N#Cc1c(N2CCN(C(=O)c3ccco3)CC2)c2cccnc2n(Cc2ccccc2)c1=O
2. O=C1CCC(N2C(=O)c3cccc(NCc4cccs4)c3C2=O)C(=O)N1 (centres undefined)
3. O=S(=O)(c1ccc(Br)cc1)N1CCC1
4. O=C1c2ccccc2S(=O)(=O)N1C(c1cccs1)c1nnnn1-c1ccccc1 (centres undefined)

1. 206 °C
2. 223 to 225 °C
3. 145 °C
4. 192 to 193 °C
